Biological target: rat NAAA (Rattus norvegicus, UniProt Q5KTC7)
Construct: crude 800 x g supernatant of sonicated cells
Sequence (Q5KTC7 34-362): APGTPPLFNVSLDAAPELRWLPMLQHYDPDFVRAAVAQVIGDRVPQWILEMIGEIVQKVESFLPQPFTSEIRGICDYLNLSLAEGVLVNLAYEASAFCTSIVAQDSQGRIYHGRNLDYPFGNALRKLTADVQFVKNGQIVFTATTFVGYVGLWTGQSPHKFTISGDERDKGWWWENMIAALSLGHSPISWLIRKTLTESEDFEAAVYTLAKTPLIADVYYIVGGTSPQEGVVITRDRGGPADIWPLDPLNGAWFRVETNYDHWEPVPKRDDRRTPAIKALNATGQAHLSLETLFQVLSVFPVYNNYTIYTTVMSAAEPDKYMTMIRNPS
Assay: NAAA enzymatic assay (recombinant rNAAA protein, LC/MS)
Details: IC50 ± S.E.M., triplicate; 25 µM heptadecenoylethanolamide, pH 5.0
The reader will find reported IC50 values listed item by item below.

Worked examples, 4 compounds total:
> print(dat)
                                   compound  value.observed
1  O=C(CCc1ccc(-c2ccccc2)cc1)N1CCCC1 [Compound 16]         2.12 µM
2  O=C(CCCCc1ccccc1)N1CCCC1 [Compound 10, 1–(4–Phenylbutanyl)–carbonyl pyrrolidine]         38.2 µM
3  O=C(Cc1ccc(OCc2ccccc2)cc1)N1CCCC1 [Compound 17]        > 100 µM
4  O=C(CCc1ccc(OCc2ccccc2)cc1)N1CCCC1 [Compound 18]        > 100 µM

// IC50 lookup, compound = O=C(Cc1ccc(-c2ccccc2)cc1)N1CCCC1 [Compound 15, 1–(4–Phenylbenzyl)–carbonyl pyrrolidine] , result: > 100 µM

Reported IC50 of O=C(CCc1ccccc1)N1CCCC1 [Compound 8, 1–(2–Phenylethyl)–carbonyl pyrrolidine] : > 100 µM

The compound identified as O=C(Cc1ccccc1)N1CCCC1 [Compound 7, 1–Benzyl–carbonyl pyrrolidine] registered its IC50 at > 100 µM

// IC50 value for O=C(CCCCCCCc1ccccc1)N1CCCC1 [Compound 13] : 37.9 µM

Entry O=C(c1ccc2ccccc2c1)N1CCCC1 [Compound 19, 1–(2–Naphthalenyl)carbonyl pyrrolidine] , IC50 reported as > 100 µM

---

Biological target: rat NAAA (Rattus norvegicus)
Construct: crude 800 x g supernatant of sonicated cells
Experiment: NAAA enzymatic assay (recombinant rNAAA protein, LC/MS);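 further: reaction product measured by LC/MS using positive APCI ionization with MRM monitoring, quantified from chromatographic peak areas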
Settings: IC50 ± S.E.M., triplicate; 25 µM heptadecenoylethanolamide, pH 5.0
The following compounds are listed with their measured IC50 values.

Example results:
> print(dat)
                                   compound  assay.endpoint  value.observed
1  O=C(CCCCCCc1ccccc1)N1CCCC1 [Compound 12, 1–(6–Phenylhexanyl)–carbonyl pyrrolidine]            IC50         12.9 µM
2  CCCCCCCCCCCCCCCC(=O)OC1CCCC1 [Compound 4, Cyclopentyl palmitate]            IC50        > 100 µM
3  O=C(NCc1ccc(-c2ccccc2)cc1)C1CCCC1 [Compound 23, 4–Phenylbenzyl cyclopentanyl carboxamide]            IC50        > 100 µM

The reported IC50 of the compound O=C(OCc1ccc(-c2ccccc2)cc1)C1CCCC1 [Compound 24, 4–Phenylbenzyl cyclopentanyl carboxylate] was > 100 µM

What the record says about O=C(Cc1ccc2ccccc2c1)N1CCCC1 [Compound 20, 1–(2–Naphthalenyl)acetyl pyrrolidine] : IC50 is > 100 µM

The reported IC50 of the compound O=C(CCCc1ccccc1)N1CCCC1 [Compound 9] was > 100 µM

Recorded IC50 (compound O=C(CCCCCc1ccccc1)N1CCCC1 [Compound 11] ): 34.6 µM

Lookup result for CCCCCCCCCCCCCCCC(=O)n1cccc1 [Compound 6, 1–Pentadecanyl–carbonyl pyrrole] ; measured IC50: > 100 µM

---

Biological target: NAAA (Rattus norvegicus)
Sequence (Q5KTC7 34-362): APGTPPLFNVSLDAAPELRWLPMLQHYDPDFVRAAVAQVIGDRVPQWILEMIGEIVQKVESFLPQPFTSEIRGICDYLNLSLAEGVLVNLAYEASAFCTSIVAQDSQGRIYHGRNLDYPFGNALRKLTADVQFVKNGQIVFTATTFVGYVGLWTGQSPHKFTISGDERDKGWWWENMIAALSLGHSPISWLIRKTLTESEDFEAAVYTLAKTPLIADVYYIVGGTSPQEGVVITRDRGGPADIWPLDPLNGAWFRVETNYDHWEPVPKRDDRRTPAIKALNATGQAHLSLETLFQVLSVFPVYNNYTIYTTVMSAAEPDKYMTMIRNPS
assay endpoint: pKi
Conceptually, pKi converts a concentration in mol/L into minus its log10.

Reported pKi for `O=C(CCc1ccc(-c2ccccc2)cc1)N1CCCC1` was 5.25

---

Target: rat FAAH (Rattus norvegicus, UniProt P97612)
Construct: crude cell extract
Sequence (P97612 whole entry): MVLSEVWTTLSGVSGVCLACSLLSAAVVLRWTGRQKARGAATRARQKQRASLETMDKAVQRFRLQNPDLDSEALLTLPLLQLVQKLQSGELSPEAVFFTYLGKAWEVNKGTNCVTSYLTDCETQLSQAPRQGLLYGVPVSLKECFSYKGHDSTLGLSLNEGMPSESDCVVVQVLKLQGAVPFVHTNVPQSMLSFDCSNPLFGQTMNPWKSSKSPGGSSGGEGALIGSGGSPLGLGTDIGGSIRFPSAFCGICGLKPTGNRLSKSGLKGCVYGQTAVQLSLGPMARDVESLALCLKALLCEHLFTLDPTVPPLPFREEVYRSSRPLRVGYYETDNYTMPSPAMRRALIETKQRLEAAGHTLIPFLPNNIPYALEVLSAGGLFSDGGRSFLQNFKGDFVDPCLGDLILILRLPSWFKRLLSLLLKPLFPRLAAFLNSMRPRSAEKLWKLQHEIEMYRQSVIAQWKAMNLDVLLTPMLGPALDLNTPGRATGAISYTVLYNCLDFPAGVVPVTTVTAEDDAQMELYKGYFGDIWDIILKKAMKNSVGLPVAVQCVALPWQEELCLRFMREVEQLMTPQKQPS
Assay: FAAH enzymatic assay (recombinant rFAAH protein, LC/MS)
Conditions: IC50 ± S.E.M., triplicate; 25 µM anandamide, pH 8.0
pIC50: −log10 of the molar value.
assay endpoint: pIC50

> print(dat)
                            compound  value.observed
1   O=C(Cc1ccc(-c2ccccc2)cc1)N1CCCC1          < 4.00
2       CCCCCCCCCCCCCCCC(=O)N1CCCCC1          < 4.00
3             O=C(CCc1ccccc1)N1CCCC1          < 4.00
4  O=C(Cc1ccc(OCc2ccccc2)cc1)N1CCCC1          < 4.00
5           O=C(CCCCc1ccccc1)N1CCCC1          < 4.00

# pIC50 (compound: CCCCCCCCCCCCCCCC(=O)NC1CCCC1 [Compound 2, N–Cyclopentylpalmitamide] ) is < 4.00

# pIC50 (compound: `O=C(CCCc1ccccc1)N1CCCC1` ) is < 4.00

get_value(item= CCCCCCCCCCCCCCCC(=O)OC1CCCC1 [Compound 4, Cyclopentyl palmitate] , readout=pIC50) returns < 4.00

---

Target: rat FAAH (Rattus norvegicus, UniProt P97612)
Construct: made in house; host or cells: HEK293 cells stably overexpressing rat FAAH (HEK293-rFAAH), a gift from D. Piomelli; crude cell extract
Assay: FAAH enzymatic assay (recombinant rFAAH protein, LC/MS)
Assay type: biochemical
assay endpoint: inhibition ability on FAAH activity (in words)

Consider the following illustrative entries.
> print(dat)
                                   molecule           value.observed
1         O=C(NCc1ccc(-c2ccccc2)cc1)N1CCCC1  full loss of inhibition
2  O=C(OCc1ccc(-c2ccccc2)cc1)C1CCCC1 [Compound 24, 4–Phenylbenzyl cyclopentanyl carboxylate]  full loss of inhibition
3           c1ccc(-c2ccc(CCCN3CCCC3)cc2)cc1  full loss of inhibition
4         O=C(OCc1ccc(-c2ccccc2)cc1)N1CCCC1  full loss of inhibition

Turning now to a further record.
For reference, reported inhibition ability on FAAH activity (in words) for O=C(NCc1ccc(-c2ccccc2)cc1)C1CCCC1 [Compound 23, 4–Phenylbenzyl cyclopentanyl carboxamide] stands at full loss of inhibition
